Data credit: patent EP4206196A1

Tested on: STAT1/3 through TYK2/JAK1
Test: IFNa induced STAT phosphorylation in HEK293 cells (SIE-bla reporter gene)
Format: cell-based
Conditions: Homo sapiens, HEK293; HEK293T-sie-bla cells, IFNa at EC80, 4 hours; read-out: Inhibition of IFNa induced STAT phosphorylation HEK293 cells IC50
pIC50: −log10 of the molar value.
Quick reference for pIC50 among some molecules

Here's what some known entries look like.
Input: Return reported pIC50; argument: Cc1cc(Nc2cc(Nc3ncccc3P(C)(C)=O)ncn2)nc(C)n1
Output: 7.00 to 8.00

Input: Return reported pIC50; argument: COc1c(Nc2cc(Nc3cc(C)nc(C)n3)ncn2)ccc(-c2ncn(C)n2)c1C
Output: < 6.00

New cases:
Input: Return reported pIC50; argument: Cc1cc(Nc2cc(Nc3nc(C)c(-c4cnn(C)c4)cc3N(C)S(C)(=O)=O)ncn2)ncn1
Output: > 8.00

---

Quick reference for pIC50 among some compounds
Tested on: STAT1/3 through TYK2/JAK1
Assay: IFNa induced STAT phosphorylation in HEK293 cells (SIE-bla reporter gene)
Format: cell-based
Conditions: Homo sapiens, HEK293; HEK293T-sie-bla cells, IFNa at EC80, 4 hours; read-out: Inhibition of IFNa induced STAT phosphorylation HEK293 cells IC50
pIC50: −log10 of the molar value.

Here's what some known entries look like.
Input: Hello, I am looking for reported pIC50 with STAT1/3 through TYK2/JAK1 for Cc1c(-c2cnc(Nc3cc(NC(=O)[C@H]4C[C@H]4F)ncn3)c(N(C)S(C)(=O)=O)c2)cnn1C [Example 160] . Could you help?
Output: 7.00 to 8.00

Input: Hello, I am looking for reported pIC50 with STAT1/3 through TYK2/JAK1 for COc1c(-c2noc(C)n2)ccnc1Nc1cc(Nc2cc(C)nc(C)n2)ncn1 [Example 159] . Could you help?
Output: > 8.00

Input: Hello, I am looking for reported pIC50 with STAT1/3 through TYK2/JAK1 for COc1c(Nc2cc(Nc3cc(C)nc(C)n3)ncn2)cccc1-c1noc(C)n1 [Example 37] . Could you help?
Output: 7.00 to 8.00

Input: Hello, I am looking for reported pIC50 with STAT1/3 through TYK2/JAK1 for Cc1cc(Nc2cc(Nc3ccccc3N(C)S(C)(=O)=O)ncn2)ncc1F [Example 101] . Could you help?
Output: 7.00 to 8.00

Input: Hello, I am looking for reported pIC50 with STAT1/3 through TYK2/JAK1 for COc1c(Nc2cc(Nc3ccc(F)cn3)ncn2)cccc1-c1ncn(C)n1 [Example 65] . Could you help?
Output: 7.00 to 8.00

New cases:
Input: Hello, I am looking for reported pIC50 with STAT1/3 through TYK2/JAK1 for Cc1cc(Nc2cc(Nc3nc(C)c(-c4cnn(C)c4C)cc3N(C)S(C)(=O)=O)ncn2)ncn1 [Example 163] . Could you help?
Output: > 8.00

Input: Hello, I am looking for reported pIC50 with STAT1/3 through TYK2/JAK1 for COc1c(Nc2cc(Nc3cc(C)ncn3)ncn2)cc(C)cc1-c1ncn(C)n1 [Example 104] . Could you help?
Output: 6.00 to 7.00

Input: Hello, I am looking for reported pIC50 with STAT1/3 through TYK2/JAK1 for COc1c(Nc2cc(Nc3cc(C)nc(C)n3)ncn2)cccc1-c1nc(C(F)(F)F)n(C)n1 [Example 29] . Could you help?
Output: < 6.00
